- target-of-assay: Tyrosyl-tRNA synthetase, putative (Trypanosoma cruzi (strain CL Brener)) (UniProt Q4DSP6)
- Sequence (whole entry): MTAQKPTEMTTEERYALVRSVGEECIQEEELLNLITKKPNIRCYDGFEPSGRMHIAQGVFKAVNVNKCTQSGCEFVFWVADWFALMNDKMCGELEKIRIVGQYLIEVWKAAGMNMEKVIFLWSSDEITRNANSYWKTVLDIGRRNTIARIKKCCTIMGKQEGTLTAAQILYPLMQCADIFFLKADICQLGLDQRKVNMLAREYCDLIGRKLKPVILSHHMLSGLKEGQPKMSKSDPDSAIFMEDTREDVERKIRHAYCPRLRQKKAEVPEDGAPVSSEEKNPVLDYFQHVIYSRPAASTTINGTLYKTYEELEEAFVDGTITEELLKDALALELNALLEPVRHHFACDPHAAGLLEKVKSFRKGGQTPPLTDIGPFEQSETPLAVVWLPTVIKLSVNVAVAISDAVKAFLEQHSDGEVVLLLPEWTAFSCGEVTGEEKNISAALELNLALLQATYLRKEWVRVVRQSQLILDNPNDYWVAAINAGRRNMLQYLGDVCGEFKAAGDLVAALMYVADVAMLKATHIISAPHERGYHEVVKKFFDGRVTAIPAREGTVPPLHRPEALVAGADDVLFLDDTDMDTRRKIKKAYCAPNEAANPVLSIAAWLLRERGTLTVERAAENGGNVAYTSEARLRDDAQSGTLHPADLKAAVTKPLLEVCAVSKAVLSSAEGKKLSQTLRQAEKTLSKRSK
- protocol-details: Trypanosoma cruzi tyrosyl tRNA synthetase (TcYRS) _High Tyrosine SOP
- Type: functional
- Set-up: scale not given: in the data most compounds retested in dose-response had high values
- applied-conditions: 30 µM
Please respond with reported Percent Effect for every item in the list.
Only the number, expressed in %, is required.

Record CNS(=O)(=O)c1ccc(CNC(=O)NCC2CCCO2)cc1 (stereo not drawn) . Reported Percent Effect: 0.952

Noted for Cc1cc(C(=O)N2CCc3nnc(N)cc3C2)c(C)n1-c1cccnc1 : its Percent Effect reads 9.38

Measured Percent Effect, Cn1cc(S(=O)(=O)N2CCCC2CC(=O)c2cccs2)cn1 (stereo not drawn) : 2.65
